Value source: ChEMBL document CHEMBL6153055

Target: Gamma-aminobutyric acid receptor subunit alpha-1/beta-3/gamma-2 (Mus musculus, UniProt P22723+P62812+P63080)
Sequence (P22723 whole entry): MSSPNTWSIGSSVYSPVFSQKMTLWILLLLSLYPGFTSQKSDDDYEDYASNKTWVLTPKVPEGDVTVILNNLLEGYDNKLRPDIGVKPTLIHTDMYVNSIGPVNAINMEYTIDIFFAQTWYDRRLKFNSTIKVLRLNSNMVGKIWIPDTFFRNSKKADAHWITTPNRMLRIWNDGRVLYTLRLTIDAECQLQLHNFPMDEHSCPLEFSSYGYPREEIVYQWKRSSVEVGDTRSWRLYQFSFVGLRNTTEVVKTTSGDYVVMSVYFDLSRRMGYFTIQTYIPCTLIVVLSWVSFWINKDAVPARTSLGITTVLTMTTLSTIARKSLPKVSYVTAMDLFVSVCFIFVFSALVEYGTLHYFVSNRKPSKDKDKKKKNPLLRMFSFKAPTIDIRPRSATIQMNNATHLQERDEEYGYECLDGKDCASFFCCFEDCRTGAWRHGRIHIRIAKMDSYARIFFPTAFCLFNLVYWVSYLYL
Sequence (P62812 whole entry): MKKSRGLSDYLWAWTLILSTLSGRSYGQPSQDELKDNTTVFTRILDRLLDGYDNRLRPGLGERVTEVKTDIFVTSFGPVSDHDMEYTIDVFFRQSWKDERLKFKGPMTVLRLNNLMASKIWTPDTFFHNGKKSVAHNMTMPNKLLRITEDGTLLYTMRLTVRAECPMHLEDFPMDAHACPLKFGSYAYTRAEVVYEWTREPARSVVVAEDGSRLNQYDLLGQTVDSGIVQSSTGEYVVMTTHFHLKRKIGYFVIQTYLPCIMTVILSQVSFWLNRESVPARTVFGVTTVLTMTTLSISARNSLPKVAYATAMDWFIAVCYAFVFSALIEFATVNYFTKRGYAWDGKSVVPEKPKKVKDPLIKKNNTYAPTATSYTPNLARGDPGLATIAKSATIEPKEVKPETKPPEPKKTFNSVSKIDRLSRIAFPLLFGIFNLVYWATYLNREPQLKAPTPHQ
Sequence (P63080 whole entry): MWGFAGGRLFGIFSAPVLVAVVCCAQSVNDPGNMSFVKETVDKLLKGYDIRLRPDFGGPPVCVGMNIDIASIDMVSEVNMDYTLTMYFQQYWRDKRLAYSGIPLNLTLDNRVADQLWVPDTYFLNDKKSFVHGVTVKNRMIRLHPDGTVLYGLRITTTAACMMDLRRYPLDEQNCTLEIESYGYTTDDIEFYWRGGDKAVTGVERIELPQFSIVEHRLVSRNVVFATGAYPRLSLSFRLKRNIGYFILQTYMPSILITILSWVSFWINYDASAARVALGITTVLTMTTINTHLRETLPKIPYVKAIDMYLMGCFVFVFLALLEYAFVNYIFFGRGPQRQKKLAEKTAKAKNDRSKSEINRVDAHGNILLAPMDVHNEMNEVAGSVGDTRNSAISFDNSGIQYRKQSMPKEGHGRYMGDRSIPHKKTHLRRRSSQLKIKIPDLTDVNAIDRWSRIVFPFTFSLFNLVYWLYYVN
Experiment: Negative allosteric modulation of recombinant mouse alpha1beta3gamma2 GABAA receptor expressed in GFP tagged HEK293 cells at peak current by whole-cell voltage clamp electrophysiological analysis
Format: cell-based
I'd appreciate it if you could supply IC50 values for the items below.
One number for each entry, in µM.

{"columns": ["Compound", "Units Label", "IC50"],
 "data": [
  ["C[C@@]12CCC(CCOS(=O)(=O)O)C[C@H]1CCc1ccccc12 (mixture of isomers)", "µM", 15],
  ["O=S(=O)(O)O[C@H]1CC[C@H](c2ccc3c(c2)CCC3)CC1", "µM", 148],
  ["C[C@@]12CCC(CCO)C[C@H]1CCc1ccccc12 (mixture of isomers)", "µM", 29]
]}

Lab note: next compound to report on.
Asked: Could you tell me which IC50 is on file for "C[C@]12CC[C@H](OS(=O)(=O)O)CC1=CCc1cc(Br)ccc12" ?
Given back: 10

---

Assay: Solubility of the compound at 100 uM
Assay type: physicochemical
Property: solubility

{"columns": ["Compound", "Test Result"],
 "data": [
  ["C[C@@]12CCC(CCO)C[C@H]1CCc1ccccc12 (mixture of isomers)", "soluble"],
  ["C[C@]12CC[C@@H](c3ccccc3)C[C@H]1CC[C@@H]2O (relative stereo)", "soluble"],
  ["C[C@]12CC[C@H](OS(=O)(=O)O)CC1=CCc1cc(Br)ccc12", "soluble"]
]}

---

Target: Gamma-aminobutyric acid receptor subunit alpha-1/beta-3/gamma-2 (Mus musculus, UniProt P22723+P62812+P63080)
Test: Negative allosteric modulation of recombinant mouse alpha1beta3gamma2 GABAA receptor expressed in GFP tagged HEK293 cells at steady state current by whole-cell voltage clamp electrophysiological analysis
Type: cell-based
I'd appreciate it if you could supply IC50 values for the items below.

{"columns": ["Compound", "Test Result"],
 "data": [
  ["C[C@@]12CCC(CCOS(=O)(=O)O)C[C@H]1CCc1ccccc12 (mixture of isomers)", "12 µM"]
]}

Quick one: give me IC50 for each item below, same order please.
1. C[C@]12CC[C@@H](c3ccccc3)C[C@H]1CC[C@@H]2OS(=O)(=O)O (mixture of isomers)
2. C[C@]12CC[C@H](c3ccccc3)C[C@H]1CC[C@@H]2OS(=O)(=O)O (mixture of isomers)
3. O[C@H]1CC[C@H](c2ccc3c(c2)CCC3)CC1

Given back:
1. 42 µM
2. 54 µM
3. 14 µM
